Would you mind telling me the reported inhibition at 11200 g/ha of each entry?
system: Wild Buckwheat; assay: Pre-emergent herbicidal activity (Table A); format: in vivo; settings: Fallopia convolvulus, pre-emergence, Wibw, 11.2 kg/ha, 10-14 days, read-out: herbicidal rating (% inhibition)

[
  {
    "compound": "COC(=O)c1c(OC)nc(C(F)(F)F)c(C#N)c1CC(C)C",
    "inhibition at 11200 g/ha": "75 to 100%"
  }
]

Give me inhibition at 11200 g/ha for each of these compounds, listed below.
1. COC(=O)c1c(OC)nc(C(F)(F)F)c(C(=O)n2cc([N+](=O)[O-])cn2)c1CC(C)C
2. COC(=O)c1c(OC)nc(C(F)(F)F)c(-c2nnco2)c1CC(C)C
3. COC(=O)c1c(OC)nc(C(F)(F)F)c(-c2nnc(C)o2)c1CC(C)C
4. CCOC=NNC(=O)c1c(C(F)(F)F)nc(OC)c(C(=O)OC)c1CC(C)C
5. COC(=O)c1c(OC)nc(C(F)(F)F)c(C(N)=O)c1CC(C)C
6. COC(=O)c1c(OC)nc(C(F)(F)F)c(C2OCC[S+]2[O-])c1CC(C)C (stereo not shown)
7. COC(=O)c1c(OC)nc(C(F)(F)F)c(C2OCCCO2)c1CC(C)C

75 to 100%
75 to 100%
75 to 100%
0 to 24%
25 to 49%
75 to 100%
75 to 100%
